# Test system: HCT-116 colon carcinoma
# METHOD_SUMMARY: Cell Proliferation Inhibition Assay (14C-thymidine incorporation), HCT-116;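 further: proliferation measured as methyl 14C-thymidine uptake into new DNA, counted in 96-well scintillating microplates, compared with DMSO-only control wells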
# Type: cell-based
# TEST_CONTEXT: Homo sapiens, HCT-116, HCT-116 cells
pIC50: −log10 of the molar value.
Label satisfied when pIC50 >= 7; otherwise not satisfied.

Answer whether pIC50 of c1ccc2c(-c3cnc4[nH]nc(-c5nc6c(COCCN7CCOCC7)cccc6[nH]5)c4c3)cncc2c1 is greater than or equal to 7.
not satisfied

Answer whether pIC50 of CC(C)(C)NC(=O)c1cccc2[nH]c(-c3n[nH]c4ncc(-c5cncc6ccccc56)cc34)nc12 is greater than or equal to 7.
satisfied

Answer whether pIC50 of O=C(NC1CC1)c1cccc2[nH]c(-c3n[nH]c4ncc(-c5cncc6ccccc56)cc34)nc12 is greater than or equal to 7.
satisfied

Answer whether pIC50 of CCN1CCN(Cc2cccc3[nH]c(-c4n[nH]c5ncc(-c6cncc7ccccc67)cc45)nc23)CC1 is greater than or equal to 7.
not satisfied

Answer whether pIC50 of CNCc1cncc(-c2cnc3[nH]nc(-c4nc5c(COC)cccc5[nH]4)c3c2)c1C is greater than or equal to 7.
not satisfied

Answer whether pIC50 of CCNCc1cncc(-c2cnc3[nH]nc(-c4nc5cc(OC)ccc5[nH]4)c3c2)c1 is greater than or equal to 7.
satisfied

Answer whether pIC50 of COCc1cccc2[nH]c(-c3n[nH]c4ncc(-c5cn(S(=O)(=O)c6ccccc6)c6ccccc56)cc34)nc12 is greater than or equal to 7.
satisfied

Answer whether pIC50 of CCN(CC)c1ccc(NC(=O)c2cccc3[nH]c(-c4n[nH]c5ncc(-c6cncc7ccccc67)cc45)nc23)c(C)c1 is greater than or equal to 7.
not satisfied

Answer whether pIC50 of COCc1cccc2[nH]c(-c3n[nH]c4ncc(-c5cncnc5)cc34)nc12 is greater than or equal to 7.
not satisfied

Answer whether pIC50 of COCc1cccc2[nH]c(-c3n[nH]c4ncc(-c5c[nH]c6ccccc56)cc34)nc12 is greater than or equal to 7.
satisfied

Answer whether pIC50 of c1ccc2c(-c3cnc4[nH]nc(-c5nc6cc(N7CCOCC7)ccc6[nH]5)c4c3)cncc2c1 is greater than or equal to 7.
not satisfied

Answer whether pIC50 of CC(C)NCc1cncc(-c2cnc3[nH]nc(-c4nc5cc(N6CCN(C)CC6)ccc5[nH]4)c3c2)c1 is greater than or equal to 7.
not satisfied

Answer whether pIC50 of COCc1cccc2[nH]c(-c3n[nH]c4ncc(-c5ccc(S(N)(=O)=O)cc5)cc34)nc12 is greater than or equal to 7.
satisfied

Answer whether pIC50 of CCNCc1cncc(-c2cnc3[nH]nc(-c4nc5c(COC)cccc5[nH]4)c3c2)c1 is greater than or equal to 7.
not satisfied

Answer whether pIC50 of Fc1ccc2nc(-c3n[nH]c4ncc(-c5cccnc5)cc34)[nH]c2c1 is greater than or equal to 7.
not satisfied

Answer whether pIC50 of COCCOCc1cccc2[nH]c(-c3n[nH]c4ncc(-c5cncc6ccccc56)cc34)nc12 is greater than or equal to 7.
not satisfied

Answer whether pIC50 of CN1CCN(c2ccc3[nH]c(-c4n[nH]c5ncc(Br)cc45)nc3c2)CC1 is greater than or equal to 7.
not satisfied

Answer whether pIC50 of COCc1cccc2[nH]c(-c3n[nH]c4ncc(-c5cncc(CNCCN6CCOCC6)c5)cc34)nc12 is greater than or equal to 7.
not satisfied

Answer whether pIC50 of Cc1ccccc1NC(=O)c1cccc2[nH]c(-c3n[nH]c4ncc(-c5cncc6ccccc56)cc34)nc12 is greater than or equal to 7.
not satisfied

Answer whether pIC50 of COCc1cccc2[nH]c(-c3n[nH]c4ncc(-c5c[nH]c6ncccc56)cc34)nc12 is greater than or equal to 7.
satisfied

Answer whether pIC50 of COCc1cccc2[nH]c(-c3n[nH]c4ncc(-c5cncc(C=NO)c5)cc34)nc12 is greater than or equal to 7.
satisfied

Answer whether pIC50 of O=C(c1cccc2[nH]c(-c3n[nH]c4ncc(-c5cncc6ccccc56)cc34)nc12)N1CCCCC1 is greater than or equal to 7.
not satisfied

Answer whether pIC50 of CCOC(=O)c1cncc(-c2cnc3[nH]nc(-c4nc5c(COC)cccc5[nH]4)c3c2)c1 is greater than or equal to 7.
satisfied

Answer whether pIC50 of COC(=O)c1cccc2[nH]c(-c3n[nH]c4ncc(-c5cccnc5)cc34)nc12 is greater than or equal to 7.
not satisfied
